# Tested on: HCT-116 colon
# TEST: NCI tumour cell line growth inhibition, 48 h
Record form. Attribute: TGI. Fill in for each entry.

INPUT: What TGI value was documented for this compound, Nc1nc(=O)n(C2OC(CO)C(O)C2O)c2ncc(-c3ccc(-c4ccccc4)cc3)nc12 (stereo not given) ?
OUTPUT: > 100 µM

INPUT: Repeat for the following compound: OCC(CCc1c[nH]c2ccccc12)c1c[nH]c2ccccc12 (stereo not given)
OUTPUT: 29.2 µM

INPUT: Also, Cc1ccc2nc(-c3ccc(N)c4ccccc34)[nH]c2c1 please.
OUTPUT: 4.57 µM

INPUT: How about CN(C)CC1CCC/C(=C\c2ccc(OC(=O)/C=C/c3ccc(Cl)c(Cl)c3)cc2)C1=O (stereo not given) ?
OUTPUT: 14.5 µM

INPUT: Same question for CCOC(=O)C(C(=O)OCC)C(=O)c1ccccc1C(=O)c1ccccc1 please.
OUTPUT: > 100 µM

INPUT: How about N#Cc1nc2c(S(=O)(=O)c3ccccc3)c(N)n(Cc3ccc(Cl)cc3)c2nc1C#N ?
OUTPUT: > 50 µM

INPUT: Now the same for NCc1c(C(N)=O)ncn1Cc1ccccc1
OUTPUT: > 100 µM

INPUT: Try this compound next: CN[C@@H](C)[C@@H](O)c1ccccc1
OUTPUT: > 100 µM

INPUT: Would you kindly repeat that for COc1cc(C2CC(=O)Nc3c2ccc2ccccc32)cc(Br)c1OC (stereo not given) ?
OUTPUT: > 34.7 µM

INPUT: Continue with O=C1C2=C(SCCS2)C(=O)c2c(Sc3ccc(Cl)cc3)c(Sc3ccc(Cl)cc3)c(Sc3ccc(Cl)cc3)c(Sc3ccc(Cl)cc3)c21
OUTPUT: > 100 µM

====

# Test system: NCI-H226 lung
# TEST: NCI tumour cell line growth inhibition, 48 h
Please provide measured TGI for the entries that follow.
Use µM as the unit, but write only the number.

INPUT: Test system NCI-H226 lung; read-out TGI; what value for CN(C)CC1CCC/C(=C\c2ccc(OC(=O)/C=C/c3ccc(Cl)c(Cl)c3)cc2)C1=O (stereo not given) ?
OUTPUT: 4.56

INPUT: Queued: Cc1ccc2c(C(=O)c3c(C)n(CCN4CCOCC4)c4ccccc34)cccc2c1
OUTPUT: 19.9

INPUT: What do you get for COc1ccc(-c2ccc(-c3ccc(C(=N)N)cn3)o2)cc1Cl ?
OUTPUT: 13.3

INPUT: Next compound: O=C(CCSc1ccnc2c(C(F)(F)F)cccc12)N/N=C/c1cc(Cl)c(Cl)cc1Cl
OUTPUT: 39.3

====

Would you kindly list TGI for each of these molecules?
# Tested on: SF-539 CNS
# TEST: NCI tumour cell line growth inhibition, 48 h

INPUT: Reported TGI, molecule CN(CC(=O)O)Cc1oc(CO)cc(=O)c1O : ____
OUTPUT: > 100 µM

INPUT: Subsequent entry: CN(C)CC1CCC/C(=C\c2ccc(OC(=O)/C=C/c3ccc(Cl)c(Cl)c3)cc2)C1=O (stereo unspecified)
OUTPUT: 7.19 µM

INPUT: Same question, Nc1nc(=O)n(C2OC(CO)C(O)C2O)c2ncc(-c3ccc(-c4ccccc4)cc3)nc12 (stereo unspecified) this time
OUTPUT: > 100 µM

INPUT: Also Cc1cc(N2CCCC2)c([N+](=O)[O-])cc1[N+](=O)[O-] , if possible.
OUTPUT: > 100 µM

INPUT: Subsequent entry: CCOc1nccc2c1nc(-c1nonc1N)n2CC
OUTPUT: > 25 µM

INPUT: Could you do the same for CCOC(=O)c1ccc(N2C(=O)Cc3ccccc3C2=O)cc1 , please?
OUTPUT: > 100 µM
